Target: Ribosomal protein S6 kinase alpha-4 (Homo sapiens) (UniProt O75676);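 also: mean inhibition of MSK2, GSK PKIS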
Sequence (O75676 whole entry, looked up): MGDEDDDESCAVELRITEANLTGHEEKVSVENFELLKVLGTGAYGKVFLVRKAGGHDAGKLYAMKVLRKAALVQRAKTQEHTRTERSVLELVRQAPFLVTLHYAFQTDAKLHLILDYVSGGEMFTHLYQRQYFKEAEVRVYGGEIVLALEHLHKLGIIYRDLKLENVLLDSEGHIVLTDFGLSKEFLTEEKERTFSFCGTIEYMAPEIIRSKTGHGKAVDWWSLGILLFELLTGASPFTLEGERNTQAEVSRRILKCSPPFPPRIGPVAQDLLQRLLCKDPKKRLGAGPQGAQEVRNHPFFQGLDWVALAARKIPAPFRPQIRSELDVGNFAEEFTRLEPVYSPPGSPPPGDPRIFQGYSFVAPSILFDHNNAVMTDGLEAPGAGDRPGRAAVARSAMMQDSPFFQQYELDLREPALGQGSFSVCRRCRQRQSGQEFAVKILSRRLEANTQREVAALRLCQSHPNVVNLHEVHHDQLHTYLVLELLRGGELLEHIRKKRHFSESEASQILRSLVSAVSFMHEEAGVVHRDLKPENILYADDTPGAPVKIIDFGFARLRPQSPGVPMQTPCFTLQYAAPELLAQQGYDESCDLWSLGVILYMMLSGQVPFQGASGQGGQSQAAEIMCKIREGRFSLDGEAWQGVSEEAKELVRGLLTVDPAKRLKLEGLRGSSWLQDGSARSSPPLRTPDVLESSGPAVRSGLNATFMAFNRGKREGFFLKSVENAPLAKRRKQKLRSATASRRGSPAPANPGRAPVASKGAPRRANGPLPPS
Conditions: at 1 µM
Class class 1: inhibition at least 4%. Class class 0: inhibition below 4%.

1. CCn1c(-c2nonc2N)nc2c(C#CC(C)(C)O)nc(CN3CCCC3)cc21 ... class 1
2. CCn1c(-c2nonc2N)nc2c(C#CC(C)(C)O)nc(OC[C@@H](N)c3ccccc3)cc21 ... class 1
3. CN(C)c1cc2c(Nc3ccc4nc(Cc5ccccc5)[nH]c4c3)ncnc2cn1 ... class 0
4. COc1ccc(-c2nn3ncccc3c2-c2ccnc(Nc3ccc(Cl)c(C(F)(F)F)c3)n2)cc1 ... class 0
5. COC(=O)Nc1nc2cc(Oc3cccc(NC(=O)Nc4cc(C(F)(F)F)ccc4F)c3)ccc2[nH]1 ... class 0
6. Nc1ncnc2occ(-c3ccc(NC(=O)Nc4cc(C(F)(F)F)cc(C(F)(F)F)c4)cc3)c12 ... class 1
7. O=C1NC(=O)C(c2ccccc2Cl)=C1Nc1cccc(O)c1 ... class 0
8. COc1cc2ncn(-c3cc(O[C@@H](C)c4ccccc4Cl)c(C(N)=O)s3)c2cc1OC ... class 1

====

Biological target: Mitogen-activated protein kinase 13 (Homo sapiens) (UniProt O15264);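 also: mean inhibition of p38delta, screened as part of the GSK PKIS kinase inhibitor set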
Sequence (O15264 whole entry): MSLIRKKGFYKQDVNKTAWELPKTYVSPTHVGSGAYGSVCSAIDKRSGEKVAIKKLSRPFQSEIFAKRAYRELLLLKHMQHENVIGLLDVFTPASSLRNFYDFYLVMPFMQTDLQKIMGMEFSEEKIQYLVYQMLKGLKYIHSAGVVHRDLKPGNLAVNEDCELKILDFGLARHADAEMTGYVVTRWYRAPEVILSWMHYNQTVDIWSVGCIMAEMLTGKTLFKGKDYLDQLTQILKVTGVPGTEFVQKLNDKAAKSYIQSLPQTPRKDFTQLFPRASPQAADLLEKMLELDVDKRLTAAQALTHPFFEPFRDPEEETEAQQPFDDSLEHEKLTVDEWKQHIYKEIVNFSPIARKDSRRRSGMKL
Conditions: at 1 µM
measured-attribute: inhibition

1. CS(=O)(=O)CCN(CC#N)Cc1ccc(-c2ccc3ncnc(Nc4ccc(OCc5cccc(F)c5)c(Cl)c4)c3c2)o1 ... 2.39%
2. CCCN1CCC=C(c2ccc(Nc3nc(Nc4ccccc4C(N)=O)c4cc[nH]c4n3)c(C)c2)C1 ... 8.15%
3. COc1cc2c(cc1Nc1nc(N3CCc4ccccc43)c3cc[nH]c3n1)N(C(=O)CN(C)C)CC2 ... 2.2%
4. CN1CCC(C(=O)Nc2n[nH]c3nnc(-c4ccccc4)cc23)CC1 ... 5.59%
5. CC1=C(C(=O)Nc2ccc3[nH]ncc3c2)C(c2ccc3ccccc3c2)CC(=O)N1 (stereo not given) ... 2.24%

====

The compounds listed here are annotated with their inhibition.
Molecular target: ALK tyrosine kinase receptor (Homo sapiens) (UniProt Q9UM73)
Sequence (Q9UM73 19-1620 limits assumed): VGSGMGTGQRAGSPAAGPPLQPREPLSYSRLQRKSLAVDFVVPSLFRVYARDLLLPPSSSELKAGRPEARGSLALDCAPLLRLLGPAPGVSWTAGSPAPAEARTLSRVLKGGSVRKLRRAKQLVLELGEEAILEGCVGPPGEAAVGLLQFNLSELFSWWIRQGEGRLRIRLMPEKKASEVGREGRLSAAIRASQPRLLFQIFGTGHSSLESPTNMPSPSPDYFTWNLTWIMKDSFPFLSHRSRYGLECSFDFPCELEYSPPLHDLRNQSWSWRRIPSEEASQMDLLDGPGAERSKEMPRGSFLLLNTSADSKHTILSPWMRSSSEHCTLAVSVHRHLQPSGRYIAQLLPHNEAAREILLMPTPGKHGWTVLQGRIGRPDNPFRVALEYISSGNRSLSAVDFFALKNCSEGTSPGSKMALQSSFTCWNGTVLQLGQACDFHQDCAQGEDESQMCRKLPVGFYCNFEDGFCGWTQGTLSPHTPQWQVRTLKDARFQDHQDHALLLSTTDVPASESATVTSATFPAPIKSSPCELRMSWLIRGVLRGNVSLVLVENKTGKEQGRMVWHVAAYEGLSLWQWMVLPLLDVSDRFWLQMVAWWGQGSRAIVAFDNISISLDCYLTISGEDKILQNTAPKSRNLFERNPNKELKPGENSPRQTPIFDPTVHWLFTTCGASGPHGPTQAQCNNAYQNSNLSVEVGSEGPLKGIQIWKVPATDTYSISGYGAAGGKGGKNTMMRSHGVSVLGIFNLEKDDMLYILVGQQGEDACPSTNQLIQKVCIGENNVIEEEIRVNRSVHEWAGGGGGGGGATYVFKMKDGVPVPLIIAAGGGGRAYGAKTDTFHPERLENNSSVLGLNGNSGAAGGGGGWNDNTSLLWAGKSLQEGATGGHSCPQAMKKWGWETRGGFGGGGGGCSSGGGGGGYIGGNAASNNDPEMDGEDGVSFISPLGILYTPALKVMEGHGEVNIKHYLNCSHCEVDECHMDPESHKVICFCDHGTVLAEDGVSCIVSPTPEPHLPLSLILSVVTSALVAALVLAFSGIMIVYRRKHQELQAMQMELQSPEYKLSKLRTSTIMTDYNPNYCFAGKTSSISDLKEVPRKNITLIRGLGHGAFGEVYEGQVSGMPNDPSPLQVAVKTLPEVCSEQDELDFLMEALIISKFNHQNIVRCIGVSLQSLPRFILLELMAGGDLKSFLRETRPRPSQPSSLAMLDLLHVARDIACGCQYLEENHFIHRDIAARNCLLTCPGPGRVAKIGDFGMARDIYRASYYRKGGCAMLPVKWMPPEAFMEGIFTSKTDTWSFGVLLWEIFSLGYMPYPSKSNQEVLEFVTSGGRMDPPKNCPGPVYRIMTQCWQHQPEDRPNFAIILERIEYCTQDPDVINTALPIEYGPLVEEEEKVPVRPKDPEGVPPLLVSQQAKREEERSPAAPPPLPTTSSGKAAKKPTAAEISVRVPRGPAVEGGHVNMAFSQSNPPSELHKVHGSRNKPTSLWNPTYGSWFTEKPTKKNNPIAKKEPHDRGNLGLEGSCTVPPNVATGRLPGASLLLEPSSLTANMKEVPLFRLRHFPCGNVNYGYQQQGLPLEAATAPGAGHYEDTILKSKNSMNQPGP
Details: at 0.1 µM
Description: GSK_PKIS: ALK mean inhibition at 0.1 uM [Nanosyn]
measured-attribute: inhibition (%)

1. Cn1cc(C=C2C(=O)Nc3cccnc32)c2ccccc21 ... 5.12
2. COc1ccc2cc(-c3c(-c4ccncc4)nc(-c4ccc([S+](C)[O-])cc4)n3C)ccc2c1 (stereo not given) ... 1.63
3. CCn1c(-c2nonc2N)nc2c(C#CC(C)(C)O)nc(CN3CCCC3)cc21 ... -0.84
4. COc1cc2ncn(-c3cc(OCc4ccccc4C(F)(F)F)c(C(N)=O)s3)c2cc1OC ... 0.14
5. CN1CCC(C(=O)Nc2n[nH]c3nnc(-c4ccccc4)cc23)CC1 ... 2.9
6. CS(=O)(=O)CCN(CC#N)Cc1ccc(-c2ccc3ncnc(Nc4ccc(OCc5cccc(F)c5)c(Cl)c4)c3c2)o1 ... -2.83
7. c1cnn2ncc(-c3ccnc(Nc4ccc5c(c4)OCCO5)n3)c2c1 ... 3.96
8. CS(=O)(=O)CCNCc1nc(-c2ccc3ncnc(Nc4ccc(F)c(Cl)c4)c3c2)cs1 ... 0.89
9. Cc1ccc(C(=O)NC2CCCCC2)cc1-c1ccc(C(=O)NCC2CC2)cc1 ... 2.91
10. CCn1c(-c2nonc2N)nc2c(C#CC(C)(C)O)nc(OC[C@@H](N)c3ccccc3)cc21 ... -0.2
11. CC1=C(C(=O)Nc2ccc3[nH]ncc3c2)C(c2ccc(Cl)c(Cl)c2)CC(=O)N1 (stereo not given) ... 0.6
12. COc1ccc(COc2ccc(Cc3cnc(N)nc3N)cc2OC)cc1 ... -0.54
13. N#Cc1c(NC(=O)c2cccc3ccccc23)sc2c1CCCC2 ... 2.92
14. Cc1cc(O)cc(C)c1/C=C/c1cncc(-c2nn[nH]n2)c1 ... -0.37
15. Nc1nc(-c2ccccn2)c(-c2ccc3ncccc3n2)s1 ... 1.41
16. Fc1cccc(COc2ccc(Nc3ncnc4sc(-c5cccs5)cc34)cc2Cl)c1 ... 0.25
17. NS(=O)(=O)c1cccc(-c2ccc3c(NC(=O)C4CC4)n[nH]c3c2)c1 ... -1.84
18. COc1cc2ncn(-c3cc(O[C@H](C)c4ccccc4Cl)c(C(N)=O)s3)c2cc1OC ... 4.18
19. Cc1ccc(NC(=O)c2ccnc(N3CCCC3)c2)cc1-c1ccc(C(=O)NCC2CC2)cc1 ... 0.36
20. CCn1c(-c2nonc2N)nc2cnc(Oc3cccc(NC(=O)c4ccc(OCCN5CCOCC5)cc4)c3)cc21 ... 1.15
